The reported measurements were obtained from patent US8178506B2.

# Tested on: A549 cells
# Test name: Cell cycle assay in A549 cells
# Assay type: cell-based, human
# Measurement conditions: A549 cells, 150 nM, 24 hours; relative to the untreated control cells in that phase
Catalogue of % cells in cell cycle phase: aneuploid values
The reply should be a number in %, with the unit left off.

Below, each entry is followed by its recorded % cells in cell cycle phase: aneuploid result.
338769 (antisense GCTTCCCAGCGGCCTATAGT; all 2'-MOE, all phosphorothioate, methylation of C not given here) [compound 338769]
184
340350 (antisense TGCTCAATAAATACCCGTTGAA; all 2'-MOE, all phosphorothioate, methylation of C not given here) [compound 340350]
108
338637 (antisense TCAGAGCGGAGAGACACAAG; all 2'-MOE, all phosphorothioate, methylation of C not given here) [compound 338637]
135

Next up:
Param readout = % cells in cell cycle phase: aneuploid; param system = A549 cells; param query = 338836 (antisense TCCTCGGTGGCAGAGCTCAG; all 2'-MOE, all phosphorothioate, methylation of C not given here) [compound 338836] ; response: value
114

###

# Test system: HeLa cells
# Test name: Cell cycle assay in HeLa cells
# Assay type: cell-based, human
# Measurement conditions: HeLa cells, 150 nM, 48 hours, relative to untreated control
In the oligonucleotide strings, read from the 5' end, every base follows the letter of its sugar. An asterisk marks phosphorothioate; unmarked linkages are phosphodiester. Other units and linkages are bracketed, terminal groups are in braces. A string of capitals states the bases alone. e = 2'-O-(2-methoxyethyl) (MOE); [5mC] = 5-methylcytosine; d = 2'-deoxy (DNA)
Measured endpoint: % cells in cell cycle phase aneuploid (%)
The reply should be a number in %, with the unit left off.

Below, each entry is followed by its recorded % cells in cell cycle phase aneuploid result.
327902 (antisense eG*eG*e[5mC]*eT*eG*eT*e[5mC]*eA*eA*eT*eT*e[5mC]*eA*eT*eA*eG*eG*eT*e[5mC]*eA*eG) [compound 327902]
162
328342 (e[5mC]*eA*eA*eT*eT*dG*d[5mC]*dG*d[5mC]*dT*dA*d[5mC]*dA*dG*dA*eA*e[5mC]*eT*eG*eT) [compound 328342]
96
25691 (antisense eG*e[5mC]*e[5mC]*eA*eA*dG*dG*d[5mC]*dG*dT*dG*dA*d[5mC]*dA*dT*eG*eA*eT*eA*eT) [compound 25691]
203
328759 (antisense eG*eA*eG*eG*eG*dA*dT*dT*dG*dT*dA*dT*dG*dA*dA*e[5mC]*eA*eT*e[5mC]*eT) [compound 328759]
223
341787 (antisense CACAGGTTAAAGGGTCTCAGGGA; all 2'-MOE, all phosphorothioate, methylation of C not given here) [compound 341787]
177

Next up:
Give the measured % cells in cell cycle phase aneuploid of 338833 (antisense TCGTGCACCTGAGGAGTCTG; all 2'-MOE, all phosphorothioate, methylation of C not given here) [compound 338833] .
136

###

# Test system: BJ, B16-F10, T47D, T47Dp53 and HeLa cells
# Test name: Cell cycle assay (propidium iodide flow cytometry), cell line panel
# Assay type: cell-based
# Measurement conditions: 150 nM oligomeric compound, 4.5 μg/ml LIPOFECTIN, after 72 hours, propidium iodide flow cytometry
In the oligonucleotide strings, read from the 5' end, every base follows the letter of its sugar. An asterisk marks phosphorothioate; unmarked linkages are phosphodiester. Other units and linkages are bracketed, terminal groups are in braces. A string of capitals states the bases alone. e = 2'-O-(2-methoxyethyl) (MOE); [5mC] = 5-methylcytosine; d = 2'-deoxy (DNA)
Is S (percentage of cells in phase of the cell cycle) at least 30%? Then y. If not, n.

The following substances have reported results that may help.
328396 (antisense e[5mC]*eT*eG*eG*eT*dT*dG*dG*dG*dT*dA*dT*dG*dA*dG*eA*e[5mC]*eA*eG*eA) [compound 328396]
n
327934 (antisense eG*eG*eT*eA*e[5mC]*eA*eA*eT*e[5mC]*eA*eA*e[5mC]*eG*eG*eT*e[5mC]*eG*eA*eT*eG*eG*eT) [compound 327934]
n

Could you please find out whether 328419 (antisense eT*eG*eT*eT*eG*d[5mC]*d[5mC]*dT*dA*dA*d[5mC]*dG*dA*dA*d[5mC]*eA*e[5mC]*eA*eG*eA) [compound 328419] has S (percentage of cells in phase of the cell cycle) that meets 30% or exceeds it?
y

Next up: 327928 (antisense eA*eA*e[5mC]*e[5mC]*eG*eA*eT*eT*eT*e[5mC]*eA*eG*eA*eT*eG*eG*eT*eG*e[5mC]*eT*eA*eG) [compound 327928]
n
